target: hGKRP (0.3 μM)–GK-W99R/W167F/W257F (1 μM) complex, GKRP-WT (Homo sapiens, UniProt P35557+Q14397, W167F/W257F/W99R); construct: FLAG; GST (cleaved yes); assay: Ligand binding by / disassembly of GKRP-WT–GK-W99R/W167F/W257F complex by TF of hGKRP; details: ligand titration of 3:1 GK–GKRP-WT complex, 20°C; read-out: Kd (apparent)
Sequence (Q14397 whole entry): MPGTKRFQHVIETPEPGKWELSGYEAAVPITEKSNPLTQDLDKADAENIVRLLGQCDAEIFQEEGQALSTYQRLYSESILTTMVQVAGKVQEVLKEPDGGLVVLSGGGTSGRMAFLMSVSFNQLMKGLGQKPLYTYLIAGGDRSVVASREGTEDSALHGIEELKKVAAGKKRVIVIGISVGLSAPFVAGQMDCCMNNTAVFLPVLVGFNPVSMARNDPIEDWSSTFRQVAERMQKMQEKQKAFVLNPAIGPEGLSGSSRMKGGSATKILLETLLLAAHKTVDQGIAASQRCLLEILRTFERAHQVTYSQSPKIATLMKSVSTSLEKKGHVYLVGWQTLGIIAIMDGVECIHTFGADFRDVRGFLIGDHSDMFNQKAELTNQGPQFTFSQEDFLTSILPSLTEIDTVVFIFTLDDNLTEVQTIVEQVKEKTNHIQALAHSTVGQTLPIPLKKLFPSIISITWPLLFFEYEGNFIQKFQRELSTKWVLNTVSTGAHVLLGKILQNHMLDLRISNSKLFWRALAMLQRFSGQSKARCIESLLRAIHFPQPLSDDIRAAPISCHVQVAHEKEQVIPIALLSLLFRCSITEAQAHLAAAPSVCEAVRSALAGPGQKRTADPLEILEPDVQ
Sequence (P35557 whole entry W99R/W167F/W257F): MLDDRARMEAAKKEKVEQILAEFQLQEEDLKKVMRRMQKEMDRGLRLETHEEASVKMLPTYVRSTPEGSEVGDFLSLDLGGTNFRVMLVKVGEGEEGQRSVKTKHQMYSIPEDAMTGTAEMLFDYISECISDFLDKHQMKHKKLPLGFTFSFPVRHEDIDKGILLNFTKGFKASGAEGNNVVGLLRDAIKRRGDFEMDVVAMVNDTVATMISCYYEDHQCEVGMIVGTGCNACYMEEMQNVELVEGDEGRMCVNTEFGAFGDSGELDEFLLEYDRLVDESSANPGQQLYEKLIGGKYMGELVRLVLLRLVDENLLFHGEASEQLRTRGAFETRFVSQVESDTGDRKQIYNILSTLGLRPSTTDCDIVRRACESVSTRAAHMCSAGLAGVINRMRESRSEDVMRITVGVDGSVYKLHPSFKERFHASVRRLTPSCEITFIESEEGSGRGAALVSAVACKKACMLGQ
For each entry below, report its pKd value.
Give bare numbers, as −log10 of the molar value.

List the reported pKd of each molecule below.
1. OC[C@H]1OC(O)[C@H](O)[C@@H](O)[C@@H]1O (stereo partly drawn) [D-Glucose, D-glucose]
2. O=C(COP(=O)([O-])[O-])[C@@H](O)[C@H](O)[C@H](O)CO.[Na+].[Na+] [F1P, D-fructose 1-phosphate sodium salt]

Response:
1. 1.92
2. 3.90
